Conditions: in acetonitrile, 318.15 K
OBSERVED_PROPERTY: solubility (mole fraction)
Keep the answer to the number alone.

Entry Nc1nc(N)c2nc(-c3ccccc3)c(N)nc2n1 ; solubility (mole fraction) = 3.47e-05

----------
Details: in isopropanol, 313.15 K
OBSERVED_PROPERTY: solubility (mole fraction)
Keep the answer to the number alone.

Entry Nc1nc(N)c2nc(-c3ccccc3)c(N)nc2n1 ; solubility (mole fraction) = 2.08e-05

----------
Conditions: in water, 283.15 K
OBSERVED_PROPERTY: solubility (mole fraction)
Keep the answer to the number alone.

Entry Nc1nc(N)c2nc(-c3ccccc3)c(N)nc2n1 ; solubility (mole fraction) = 1.07e-06
